Reference source: paper PMC5540273

Tested on: AXL
Conditions: concentration: 1 μM,replicates: in singlicate; n = 1;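 further: KINOMEscan kinase panel screen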
Measured %Inh values are reported for all entries that follow.
I only need the number, in %, no unit after it.

In the examples that follow, each entry is paired with its recorded %Inh.
Cc1nnc(-c2ccc3occ(-c4ccc(S(C)=O)cc4)c3n2)o1 (stereo not shown)
0
CC(=O)Nc1nc2cnc(Nc3cc(NC(=O)c4cccc(CC(C)(C)C#N)c4)ccc3C)nc2s1
20
CN(c1ccccc1CNc1nc(Nc2ccc3c(c2)CC(=O)N3)ncc1C(F)(F)F)S(C)(=O)=O
92.4

We next turn to a different compound, shown below.
Query block: Given Cc1ccn2nc(-c3ccc(F)cc3)c(-c3ccncc3)c2c1.Cl [GW457859] , state its recorded %Inh.
Result block: 3

* * *

System: SIK
Conditions: concentration: 1 μM,replicates: in singlicate; n = 1
Decision: %Inh beneath 2% gives met; %Inh meeting or exceeding 2% gives not met.

Example entries begin here.
CN1CCN(CCNc2nc3cc(Oc4ccc(NC(=O)Nc5cc(C(F)(F)F)ccc5F)cc4)ccc3[nH]2)CC1.Cl.Cl
met
CCn1c(-c2nonc2N)nc2cncc(Br)c21
not met
CCCC(=O)Nc1n[nH]c2ncccc12
met

Query block: Consider Cc1ccn2nc(-c3ccc(F)cc3)c(-c3ccncc3)c2c1.Cl . Does its %Inh lie strictly below 2%?
Result block: met

Query block: # check: %Inh < 2% for Cc1ccc(Nc2ccnc(Nc3ccc4c(c3)CS(=O)(=O)C4)n2)cc1O.Cl
Result block: not met

Query block: Below 2% on %Inh? Entry O=C(Nc1ccc(Oc2ccc3nc(NC(=O)C4CC4)cn3n2)c(F)c1)c1cccn(-c2ccccc2)c1=O
Result block: not met

Query block: Hello, is %Inh of the following molecule strictly smaller than 2%? CCOC(=O)N1CCC(n2cnc(-c3ccc(F)cc3)c2-c2ccnc(N)n2)CC1
Result block: met

Query block: Problem: For the molecule Cn1ccc2ncnc(Oc3ccc(NC(=O)Nc4cncc(C(F)(F)F)c4)c(Cl)c3)c21 , is %Inh under 2%?
Result block: met

Query block: hey, is %Inh for COC(=O)c1cccc(NC(=O)NC2CCN(c3ccnc(NCc4ccc(F)cc4)n3)CC2)c1 lower than 2% or not?
Result block: not met

Query block: Would you kindly verify if %Inh of Cc1ccc(CC(=O)N2CCc3cc(-c4cn(C)c5ncnc(N)c45)ccc32)cc1 is strictly less than 2%?
Result block: not met

* * *

Test system: MEK5
Construct: gene MAP2K5
Settings: concentration: 1 μM,replicates: in singlicate; n = 1
Overview of recorded %Inh for various compounds
Enter your answer as a number in %; do not include the unit.

CN1CCN(CCNc2nc3cc(Oc4ccc(NC(=O)Nc5cc(C(F)(F)F)ccc5F)cc4)ccc3[nH]2)CC1.Cl.Cl
2

Then there is this compound:
Query block: Which measured %Inh value corresponds to CN(c1ccccc1CNc1nc(Nc2ccc3c(c2)CC(=O)N3)ncc1C(F)(F)F)S(C)(=O)=O ?
Result block: 17

* * *

Quick reference: %Inh of the listed items.
System: FGFR4
Conditions: concentration: 1 μM,replicates: in singlicate; n = 1
# number only, unit % dropped from output

In the examples that follow, each entry is paired with its recorded %Inh.
CCn1c(-c2nonc2N)nc2cncc(CNC3CCNCC3)c21.Cl
6
COc1cccc(CNC(=O)NC2CCN(c3ccnc(Nc4cc(OC)c(OC)c(OC)c4)n3)C2)c1 (stereo not shown)
2
CC(C(=O)NC1CCN(c2ccnc(Nc3ccc(F)cc3)n2)C1)c1ccc(Cl)cc1 (stereo not shown)
0
CC(=O)Nc1ccc(-c2cc3ncnc(SCC(=O)O)c3s2)cc1
0
O=C(Nc1ccccc1)c1cccc(Oc2ccc3nccn3n2)c1
0
COC(=O)Nc1nc2cc(Oc3ccc(NC(=O)Nc4cc(C(F)(F)F)ccc4Cl)cc3)ccc2[nH]1.Cl
1

Query block: Request the reported %Inh associated with Cc1ccc(Nc2ccnc(Nc3ccc4c(c3)CS(=O)(=O)C4)n2)cc1O.Cl
Result block: 41

Query block: Any idea what its %Inh is? The compound is C[C@@H]1CCN(C(=O)N2CCCC2)C[C@@H]1N(C)c1ncnc2[nH]ccc12
Result block: 3

Query block: Which measured %Inh value corresponds to COC(=O)c1cccc(NC(=O)NC2CCN(c3ccnc(Nc4cc(OC)c(OC)c(OC)c4)n3)C2)c1 (stereo not shown) ?
Result block: 0

Query block: For Cc1cccc2c(-c3ccncc3)c(-c3ccc(F)cc3)nn12.Cl , what is its reported %Inh?
Result block: 9

Query block: Return reported %Inh; argument: Cc1ccc2c(-c3ccnc(Nc4ccc(C(F)(F)F)cc4)n3)cnn2n1
Result block: 6

* * *

Tested on: MARK1
Conditions: concentration: 1 μM,replicates: in singlicate; n = 1
Label yes (1) when %Inh is at or above 4%; otherwise label no (0).

Some solved entries appear below for comparison.
Cc1cccc2c(-c3ccncc3)c(-c3ccc(F)cc3)nn12.Cl [GW461487]
no (0)
Cn1ccc2ncnc(Oc3ccc(NC(=O)Nc4cccc(C(F)(F)F)c4)c(Cl)c3)c21
no (0)
Cc1ccc2c(-c3ccnc(Nc4ccc(C(F)(F)F)cc4)n3)cnn2n1 [GW819776]
yes (1)
CNC(=O)c1ccccc1Nc1nc(Nc2cccc(CS(C)(=O)=O)c2)ncc1C.O=CO [GSK1520489]
yes (1)
C[C@@H](Oc1cc(-n2cnc3ccc(-c4ccncc4)cc32)sc1C(N)=O)c1ccccc1Cl [GSK483724]
yes (1)

Query block: Check the entry NC(=O)c1ccc(-c2cc3ncnc(SCC(=O)O)c3s2)cc1 : does %Inh equal or exceed 4%?
Result block: no (0)

Query block: Given FC(F)(F)c1cc(Br)cc(Nc2nccc(-c3cnn4ncccc34)n2)c1 [GW810578] , state whether its %Inh is at least 4%.
Result block: no (0)

Query block: In plain terms: is recorded %Inh at least 4% for CN1CCN(CCCNc2nccc(-c3c(-c4ccc(F)cc4)nn4cc(C(N)=O)ccc34)n2)CC1 [GW622475] ?
Result block: yes (1)

Query block: State whether the measured %Inh reaches 4%, counting equality as reaching it, for C[C@@H]1CCN(C(=O)N2CCCC2)C[C@@H]1N(C)c1ncnc2[nH]ccc12
Result block: no (0)

Query block: Item N#Cc1cccc(C(=O)NC2CCN(c3ccnc(Nc4ccc(F)cc4)n3)C2)c1 (stereo not shown) [GSK1379708] with %Inh of 4% or above?
Result block: no (0)

Query block: Confirm if %Inh reported for the compound Cl.Cl.NC[C@H](CC1CCCCC1)NC(=O)c1ccc(-c2ccnc3[nH]ccc23)s1 [GSK1581428] is 4% or above.
Result block: yes (1)

Query block: Say whether C[C@@H](Oc1cc(-n2cnc3cc(-c4ccncc4)ccc32)sc1C(N)=O)c1ccccc1Cl [GSK479719] shows %Inh of 4% or more.
Result block: no (0)

Query block: Is %Inh for COC(=O)Nc1nc2cc(Oc3ccc(NC(=O)Nc4cc(C(F)(F)F)ccc4Cl)cc3)ccc2[nH]1.Cl [GW697465] at or above 4%?
Result block: no (0)

Query block: Textbook exercise: given the entry Cc1ccn2nc(-c3ccc(F)cc3)c(-c3ccncc3)c2c1.Cl [GW457859] , state whether its %Inh is greater than or equal to 4%.
Result block: no (0)

Query block: In plain terms: is recorded %Inh at least 4% for COc1cc(Nc2nccc(N3CCC(NC(=O)c4cccc(C#N)c4)C3)n2)cc(OC)c1OC (stereo not shown) [GSK1379751] ?
Result block: yes (1)

* * *

Test system: YANK1
Construct: gene STK32A
Details: concentration: 1 μM,replicates: in singlicate; n = 1
fulfilled means recorded %Inh is 2% or above; not fulfilled means it is below 2%.

Examples with answers:
FC(F)(F)c1cc(Br)cc(Nc2nccc(-c3cnn4ncccc34)n2)c1
not fulfilled
COC(=O)Nc1nc2cc(Oc3ccc(NC(=O)Nc4cc(C(F)(F)F)ccc4Cl)cc3)ccc2[nH]1.Cl
not fulfilled
CC(=O)Nc1nc2cnc(Nc3cc(NC(=O)c4cccc(CC(C)(C)C#N)c4)ccc3C)nc2s1
not fulfilled
Cc1ccn2nc(-c3ccc(F)cc3)c(-c3ccncc3)c2c1.Cl
fulfilled
O=C(Nc1cccc(C(F)(F)F)c1)c1cccc(Oc2ccc3nccn3n2)c1
not fulfilled
Cn1cc(-c2cccc3c(N)c(C(N)=O)nnc23)cn1
fulfilled

Now examine the next entry.
Query block: Has C[C@@H]1CNc2c(sc3ccc4nc(-c5ccc(O)cc5)ccc4c23)C(=O)N1 a recorded %Inh greater than or equal to 2%?
Result block: not fulfilled

* * *

System: RSK2(Kin.Dom.2-C-terminal)
Construct: gene RPS6KA3
Settings: concentration: 1 μM,replicates: in singlicate; n = 1
# %Inh listing for each entry below
The reply should be a number in %, with the unit left off.

Recorded %Inh, per entry:
CC(=O)Nc1ccc(-c2cc3ncnc(SCC(=O)O)c3s2)cc1
0
COc1cc2nccc(Nc3ccc(Oc4ccccc4)cc3)c2cc1OC.Cl
0
C[C@@H](Oc1cc(-n2cnc3cc(-c4cnn(C)c4)ccc32)sc1C(N)=O)c1ccccc1Cl
2
COc1cccc(CNC(=O)NC2CCN(c3ccnc(Nc4cc(OC)c(OC)c(OC)c4)n3)C2)c1 (stereo not drawn)
29
COc1cccc(C2=C(Nc3cccc(Cl)c3)C(=O)NC2=O)c1
11

Query block: Form: Entry = COc1cc2c(Nc3ccc(NC(=O)c4ccccc4)cc3)ncnc2cc1OCCCN1CCOCC1 | System = RSK2(Kin.Dom.2-C-terminal) | %Inh = ____
Result block: 1
